B1: KLHL14 (parent)
chain: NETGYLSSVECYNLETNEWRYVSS

Variants of: B1
Experiment: protein stability index of a GFP-peptide fusion (GPS, HEK-293T) (PSI 1-6); higher = more stable;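 further: lentivirally expressed fusions sorted by FACS into six bins by GFP to DsRed ratio, PSI derived from sequencing read proportions per bin multiplied by bin number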
Details: c terminus: a fixed tail appended
fulfilled means recorded protein stability index is 3 or above; not fulfilled means it is below 3.

Please review the entries below; each comes with its answer.
Q: Confirm if protein stability index reported for the variant E10R is 3 or above.
Ans: fulfilled

Q: I'd appreciate it if you could say whether Y12W has protein stability index at least equal to 3.
Ans: fulfilled

Q: Dear colleague, could you confirm whether V9F has protein stability index at or above 3?
Ans: not fulfilled

Q: Decide: is the reported value of protein stability index for G4T equal to or greater than 3?
Ans: not fulfilled

Q: Could you verify whether the entry T3C shows protein stability index of no less than 3?
Ans: not fulfilled

New cases:
Q: Can Y5S be said to have protein stability index at or above 3?
Ans: fulfilled

Q: Dear colleague, could you confirm whether S7P has protein stability index at or above 3?
Ans: fulfilled
